- targetDesc: hNLRP3 (Homo sapiens, UniProt Q96P20)
- Construct: THP-1 cells were purchased from the American Type Culture Collection
- Sequence (Q96P20 whole entry): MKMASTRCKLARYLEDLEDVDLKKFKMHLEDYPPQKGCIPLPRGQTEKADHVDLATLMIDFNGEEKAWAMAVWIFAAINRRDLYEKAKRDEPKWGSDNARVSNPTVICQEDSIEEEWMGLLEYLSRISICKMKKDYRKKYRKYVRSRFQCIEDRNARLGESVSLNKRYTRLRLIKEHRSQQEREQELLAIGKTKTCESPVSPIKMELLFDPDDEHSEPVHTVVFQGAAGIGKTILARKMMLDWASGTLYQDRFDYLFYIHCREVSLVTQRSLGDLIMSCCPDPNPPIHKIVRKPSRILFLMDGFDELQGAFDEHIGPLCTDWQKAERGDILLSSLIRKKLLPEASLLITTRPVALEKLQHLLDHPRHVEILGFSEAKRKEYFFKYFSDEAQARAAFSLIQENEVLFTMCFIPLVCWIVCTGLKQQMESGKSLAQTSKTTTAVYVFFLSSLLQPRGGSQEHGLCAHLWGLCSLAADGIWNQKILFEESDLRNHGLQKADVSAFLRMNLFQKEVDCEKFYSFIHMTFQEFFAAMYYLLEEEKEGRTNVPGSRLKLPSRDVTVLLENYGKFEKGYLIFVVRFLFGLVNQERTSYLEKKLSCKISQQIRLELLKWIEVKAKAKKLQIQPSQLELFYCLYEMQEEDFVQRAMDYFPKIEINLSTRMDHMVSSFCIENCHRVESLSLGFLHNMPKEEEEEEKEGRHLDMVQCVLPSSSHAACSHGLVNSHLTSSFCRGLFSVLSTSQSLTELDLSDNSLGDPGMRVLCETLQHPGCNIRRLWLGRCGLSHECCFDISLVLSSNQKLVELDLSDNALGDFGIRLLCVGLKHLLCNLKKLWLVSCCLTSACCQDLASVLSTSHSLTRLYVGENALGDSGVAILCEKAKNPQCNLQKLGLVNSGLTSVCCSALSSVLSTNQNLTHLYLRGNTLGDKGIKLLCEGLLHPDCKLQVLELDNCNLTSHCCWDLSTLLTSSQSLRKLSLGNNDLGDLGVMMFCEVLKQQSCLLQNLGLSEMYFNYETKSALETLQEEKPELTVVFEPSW
- protocolSummary: IL-1β production in PMA-differentiated THP-1 cells stimulated with gramicidin (hTHP-1 assay)
- conditionDescription: read-out: NLRP3 Antagonist, hNLRP3 (THP-1, IL-1b) Normalized: GeoMean IC50
- Experimental: Procedure 1: IL-1β Production in PMA-Differentiated THP-1 Cells Stimulated with Gramicidin. THP-1 cells were purchased from the American Type Culture Collection and sub-cultured according to instructions from the supplier. […] THP-1 cells were purchased from the American Type Culture Collection and sub-cultured according to instructions from the supplier. […] Cell free supernatant (40 μL) was collected using a 96-channel PlateMaster (Gilson) and the production of IL-1β was evaluated by HTRF (cisbio). […]
pIC50: −log10 of the molar value.
readoutType: pIC50

{"compound": "O=C(N=S1(=O)NC(=O)c2ccc(Br)cc21)Nc1c2c(cc3c1CCC3)CCC2 (single isomer, unassigned) [Compound 103b]", "testResult": "4.52 to 5.30"}
{"compound": "O=C(N=S1(=O)CC2(CN1)COC2)Nc1c2c(cc3c1CCC3)CCC2 (stereo not drawn) [Compound 139b]", "testResult": "< 4.52"}
{"compound": "O=C(N=S1(=O)CC2(COC2)C(=O)N1)Nc1c2c(cc3c1CCC3)CCC2 (single isomer, unassigned) [Compound 132a]", "testResult": "5.30 to 6.00"}
